tested on: 299254-011-R-J1-PDC complex spheroids viability; test: Anticancer human tumor 299254-011-R-J1-PDC patient-derived melanoma cell line growth inhibition [GQUAD]; conditions: second compound 0.316 µM; first compound 0.0316 µM; stronger effect = lower value
MEASURED ATTRIBUTE: viability, T/C (%)
# value in %; strip the unit string

I looked up O=C(NO)c1cnc(N2CCN(S(=O)(=O)c3ccc4ccccc4c3)CC2)nc1 + Cc1[nH]c2ccc(F)cc2c1-c1nc2c3cccnc3c3ncccc3c2[nH]1 and its viability, T/C for 299254-011-R-J1-PDC complex spheroids viability was 91.4

I looked up CC(C)(O)C1CCC(Nc2ccc3ncc(-c4cccc(C(F)(F)F)c4)n3n2)CC1 (stereo not drawn) + Cc1[nH]c2ccc(F)cc2c1-c1nc2c3cccnc3c3ncccc3c2[nH]1 and its viability, T/C for 299254-011-R-J1-PDC complex spheroids viability was 108

I looked up C=CC(=O)N1CCN(c2nc(=O)n(-c3c(C)ccnc3C(C)C)c3nc(-c4c(O)cccc4F)c(F)cc23)C(C)C1 (stereo not drawn) + Cc1[nH]c2ccc(F)cc2c1-c1nc2c3cccnc3c3ncccc3c2[nH]1 and its viability, T/C for 299254-011-R-J1-PDC complex spheroids viability was 67.3

###

Exercise: for every item that follows, state its recorded viability, T/C.
system: 299254-011-R-J1-PDC complex spheroids viability; assay: Anticancer human tumor 299254-011-R-J1-PDC cell line growth inhibition [GQUAD]; settings: second compound 3.16 µM; first compound 10 µM; stronger effect = lower value;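 further: spheroids exposed to the agents for seven days before readout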;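 on viability, T/C: percent viability relative to DMSO vehicle control wells = 100%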
# value in %; strip the unit string

Sure, the documented viability, T/C for C=CC(=O)N1CCN(c2nc(=O)n(-c3c(C)ccnc3C(C)C)c3nc(-c4c(O)cccc4F)c(F)cc23)C(C)C1 (centres undefined) + Cc1[nH]c2ccc(F)cc2c1-c1nc2c3cccnc3c3ncccc3c2[nH]1 is 69.9

Sure, the documented viability, T/C for COc1ccc([C@@H](O)c2cc(-c3ncnc4cc(N5CCOCC5)ccc34)c(F)cc2Cl)nn1 + CN(C)c1ccc(Nc2c3ccc(NC(=O)CCN4CCCC4)cc3nc3cc(NC(=O)CCN4CCCC4)ccc23)cc1 is 68.5

Sure, the documented viability, T/C for O=C(c1cc(Cc2n[nH]c(=O)c3ccccc23)ccc1F)N1CCN(C(=O)C2CC2)CC1 + Cc1cnc(CNC(=O)c2c(=O)c3ccc(N4CCCN(C)CC4)nc3n3c2sc2ccccc23)cn1 is 67.9

Sure, the documented viability, T/C for C#Cc1c(F)ccc2cc(O)cc(-c3ncc4c(N5CC6CCC(C5)N6)nc(OCC56CCCN5CC(F)C6)nc4c3F)c12 (centres undefined) + CN(C)c1ccc(Nc2c3ccc(NC(=O)CCN4CCCC4)cc3nc3cc(NC(=O)CCN4CCCC4)ccc23)cc1 is 69.9

###

test system: 299254-011-R-J1-PDC complex spheroids viability; assay: Anticancer human tumor 299254-011-R-J1-PDC cell line growth inhibition [GQUAD]; conditions: second compound 0.1 µM; first compound 3.16 µM; stronger effect = lower value;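 further: spheroids exposed to the agents for seven days before readout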;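 on viability, T/C: percent viability relative to DMSO vehicle control wells = 100%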
Grouping key: viability, T/C. Bins: lo: < 60%; mid: ≥ 60% and < 80%; hi: ≥ 80%

IN: Please classify: COc1cc(C2c3cc4c(cc3C(OC3OC5COC(C)OC5C(O)C3O)C3COC(=O)C23)OCO4)cc(OC)c1O (centres undefined) + Cc1[nH]c2ccc(F)cc2c1-c1nc2c3cccnc3c3ncccc3c2[nH]1
OUT: hi

IN: Please classify: COc1ncnc(C2CC2)c1-c1ncc2cnn(Cc3ccc(-c4nc(C(F)(F)F)cn4C(C)C)cc3)c2n1 + Cc1[nH]c2ccc(F)cc2c1-c1nc2c3cccnc3c3ncccc3c2[nH]1
OUT: hi

IN: Please classify: C=CCn1c(=O)c2cnc(Nc3ccc(N4CCN(C)CC4)cc3)nc2n1-c1cccc(C(C)(C)O)n1 + Cc1cnc(CNC(=O)c2c(=O)c3ccc(N4CCCN(C)CC4)nc3n3c2sc2ccccc23)cn1
OUT: lo

IN: Please classify: CC(C)n1c(=O)n(C)c2cnc3cc(F)c(-c4ccc(OCCCN5CCCCC5)nc4)cc3c21 + Cc1cnc(CNC(=O)c2c(=O)c3ccc(N4CCCN(C)CC4)nc3n3c2sc2ccccc23)cn1
OUT: mid

IN: Please classify: COc1cccc2c1C(=O)c1c(O)c3c(c(O)c1C2=O)CC(O)(C(=O)CO)CC3OC1CC(N)C(O)C(C)O1 (centres undefined) + CN(C)c1ccc(Nc2c3ccc(NC(=O)CCN4CCCC4)cc3nc3cc(NC(=O)CCN4CCCC4)ccc23)cc1
OUT: mid

IN: Please classify: CC1COCCN1c1cc(C2(S(C)(=N)=O)CC2)nc(-c2ccnc3[nH]ccc23)n1 (centres undefined) + Cc1cnc(CNC(=O)c2c(=O)c3ccc(N4CCCN(C)CC4)nc3n3c2sc2ccccc23)cn1
OUT: lo

IN: Please classify: O=C(c1cc(Cc2n[nH]c(=O)c3ccccc23)ccc1F)N1CCN(C(=O)C2CC2)CC1 + Cc1cnc(CNC(=O)c2c(=O)c3ccc(N4CCCN(C)CC4)nc3n3c2sc2ccccc23)cn1
OUT: hi

IN: Please classify: C=CC(=O)N1CCN(c2nc(=O)n(-c3c(C)ccnc3C(C)C)c3nc(-c4c(O)cccc4F)c(F)cc23)C(C)C1 (centres undefined) + CN(C)c1ccc(Nc2c3ccc(NC(=O)CCN4CCCC4)cc3nc3cc(NC(=O)CCN4CCCC4)ccc23)cc1
OUT: mid

IN: Please classify: O=C(NO)c1cnc(N2CCN(S(=O)(=O)c3ccc4ccccc4c3)CC2)nc1 + CN(C)c1ccc(Nc2c3ccc(NC(=O)CCN4CCCC4)cc3nc3cc(NC(=O)CCN4CCCC4)ccc23)cc1
OUT: lo

IN: Please classify: COc1cccc2c1C(=O)c1c(O)c3c(c(O)c1C2=O)CC(O)(C(=O)CO)CC3OC1CC(N)C(O)C(C)O1 (centres undefined) + Cc1[nH]c2ccc(F)cc2c1-c1nc2c3cccnc3c3ncccc3c2[nH]1
OUT: mid

IN: Please classify: O=C(c1cc(Cc2n[nH]c(=O)c3ccccc23)ccc1F)N1CCN(C(=O)C2CC2)CC1 + CN(C)c1ccc(Nc2c3ccc(NC(=O)CCN4CCCC4)cc3nc3cc(NC(=O)CCN4CCCC4)ccc23)cc1
OUT: hi

IN: Please classify: O=C(NO)c1cnc(N2CCN(S(=O)(=O)c3ccc4ccccc4c3)CC2)nc1 + Cc1[nH]c2ccc(F)cc2c1-c1nc2c3cccnc3c3ncccc3c2[nH]1
OUT: lo

IN: Please classify: Nc1ccn(C2OC(CO)C(O)C2(F)F)c(=O)n1 (centres undefined) + Cc1[nH]c2ccc(F)cc2c1-c1nc2c3cccnc3c3ncccc3c2[nH]1
OUT: lo

###

tested on: 299254-011-R-J1-PDC complex spheroids viability; assay: Anticancer human tumor 299254-011-R-J1-PDC cell line growth inhibition [GQUAD]; settings: curve of first compound; second compound 0.1 µM;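 further: spheroids exposed to the agents for seven days before readout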
Exercise: for every item that follows, state its recorded IC50.

Sure, the documented IC50 for C=CC(=O)N1CCN(c2nc(=O)n(-c3c(C)ccnc3C(C)C)c3nc(-c4c(O)cccc4F)c(F)cc23)C(C)C1 (stereo not drawn) + Cc1[nH]c2ccc(F)cc2c1-c1nc2c3cccnc3c3ncccc3c2[nH]1 is > 10 µM

Sure, the documented IC50 for Cn1ncnc1[C@H]1c2n[nH]c(=O)c3cc(F)cc(c23)N[C@@H]1c1ccc(F)cc1 + Cc1cnc(CNC(=O)c2c(=O)c3ccc(N4CCCN(C)CC4)nc3n3c2sc2ccccc23)cn1 is > 0.316 µM

Sure, the documented IC50 for COc1ncnc(C2CC2)c1-c1ncc2cnn(Cc3ccc(-c4nc(C(F)(F)F)cn4C(C)C)cc3)c2n1 + Cc1cnc(CNC(=O)c2c(=O)c3ccc(N4CCCN(C)CC4)nc3n3c2sc2ccccc23)cn1 is > 10 µM

###

Exercise: for every item that follows, state its recorded viability, T/C.
tested on: 299254-011-R-J1-PDC complex spheroids viability; test: Anticancer human tumor 299254-011-R-J1-PDC cell line growth inhibition [GQUAD]; conditions: second compound 0.316 µM; first compound 1 µM; stronger effect = lower value;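 further: spheroids exposed to the agents for seven days before readout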;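 on viability, T/C: percent viability relative to DMSO vehicle control wells = 100%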

Sure, the documented viability, T/C for COc1ccc([C@@H](O)c2cc(-c3ncnc4cc(N5CCOCC5)ccc34)c(F)cc2Cl)nn1 + CN(C)c1ccc(Nc2c3ccc(NC(=O)CCN4CCCC4)cc3nc3cc(NC(=O)CCN4CCCC4)ccc23)cc1 is 106%

Sure, the documented viability, T/C for COc1ncnc(C2CC2)c1-c1ncc2cnn(Cc3ccc(-c4nc(C(F)(F)F)cn4C(C)C)cc3)c2n1 + Cc1cnc(CNC(=O)c2c(=O)c3ccc(N4CCCN(C)CC4)nc3n3c2sc2ccccc23)cn1 is 101%

Sure, the documented viability, T/C for C=CC(=O)N1CCN(c2nc(=O)n(-c3c(C)ccnc3C(C)C)c3nc(-c4c(O)cccc4F)c(F)cc23)C(C)C1 (centres undefined) + Cc1[nH]c2ccc(F)cc2c1-c1nc2c3cccnc3c3ncccc3c2[nH]1 is 64.6%

Sure, the documented viability, T/C for CC(C)(O)C1CCC(Nc2ccc3ncc(-c4cccc(C(F)(F)F)c4)n3n2)CC1 (centres undefined) + Cc1cnc(CNC(=O)c2c(=O)c3ccc(N4CCCN(C)CC4)nc3n3c2sc2ccccc23)cn1 is 98.2%

Sure, the documented viability, T/C for COc1ncnc(C2CC2)c1-c1ncc2cnn(Cc3ccc(-c4nc(C(F)(F)F)cn4C(C)C)cc3)c2n1 + CN(C)c1ccc(Nc2c3ccc(NC(=O)CCN4CCCC4)cc3nc3cc(NC(=O)CCN4CCCC4)ccc23)cc1 is 99.4%

Sure, the documented viability, T/C for Nc1ccn(C2OC(CO)C(O)C2(F)F)c(=O)n1 (centres undefined) + Cc1[nH]c2ccc(F)cc2c1-c1nc2c3cccnc3c3ncccc3c2[nH]1 is 70.5%

Sure, the documented viability, T/C for CC(C)n1c(=O)n(C)c2cnc3cc(F)c(-c4ccc(OCCCN5CCCCC5)nc4)cc3c21 + Cc1[nH]c2ccc(F)cc2c1-c1nc2c3cccnc3c3ncccc3c2[nH]1 is 94.2%

Sure, the documented viability, T/C for CC1COCCN1c1cc(C2(S(C)(=N)=O)CC2)nc(-c2ccnc3[nH]ccc23)n1 (centres undefined) + Cc1cnc(CNC(=O)c2c(=O)c3ccc(N4CCCN(C)CC4)nc3n3c2sc2ccccc23)cn1 is 69.8%

Sure, the documented viability, T/C for CC1COCCN1c1cc(C2(O)CC3CCC(C2)O3)c2cnn(-c3ccn[nH]3)c2n1 (centres undefined) + CN(C)c1ccc(Nc2c3ccc(NC(=O)CCN4CCCC4)cc3nc3cc(NC(=O)CCN4CCCC4)ccc23)cc1 is 16.7%

Sure, the documented viability, T/C for CCCS(=O)(=O)Nc1ccc(F)c(C(=O)c2c[nH]c3ncc(-c4ccc(Cl)cc4)cc23)c1F + CN(C)c1ccc(Nc2c3ccc(NC(=O)CCN4CCCC4)cc3nc3cc(NC(=O)CCN4CCCC4)ccc23)cc1 is 103%

Sure, the documented viability, T/C for CC1COCCN1c1cc(C2(S(C)(=N)=O)CC2)nc(-c2ccnc3[nH]ccc23)n1 (centres undefined) + Cc1[nH]c2ccc(F)cc2c1-c1nc2c3cccnc3c3ncccc3c2[nH]1 is 87.9%

Sure, the documented viability, T/C for COc1ccc([C@@H](O)c2cc(-c3ncnc4cc(N5CCOCC5)ccc34)c(F)cc2Cl)nn1 + Cc1[nH]c2ccc(F)cc2c1-c1nc2c3cccnc3c3ncccc3c2[nH]1 is 83.4%

Sure, the documented viability, T/C for CC(=O)O[C@H]1C(=O)[C@@]2(C)[C@H]([C@H](OC(=O)c3ccccc3)[C@]3(O)C[C@H](OC(=O)[C@H](O)[C@@H](NC(=O)c4ccccc4)c4ccccc4)C(C)=C1C3(C)C)[C@]1(OC(C)=O)CO[C@@H]1C[C@@H]2O + CN(C)c1ccc(Nc2c3ccc(NC(=O)CCN4CCCC4)cc3nc3cc(NC(=O)CCN4CCCC4)ccc23)cc1 is 37.1%

Sure, the documented viability, T/C for COc1cc(C2c3cc4c(cc3C(OC3OC5COC(C)OC5C(O)C3O)C3COC(=O)C23)OCO4)cc(OC)c1O (centres undefined) + CN(C)c1ccc(Nc2c3ccc(NC(=O)CCN4CCCC4)cc3nc3cc(NC(=O)CCN4CCCC4)ccc23)cc1 is 88.2%
